System: J-RT3-T3-5;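 also: cell viability assay measuring growth inhibition of human J-RT3-T3-5 cells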
Experiment: cells
Type: functional, cell-based
Settings: Homo sapiens
Description: SANGER: Inhibition of human J-RT3-T3-5 cell growth in a cell viability assay.
readout-kind: IC50

Task: Can you look up the measured IC50 of CCC1=C[C@@H]2CN(C1)Cc1c([nH]c3ccccc13)[C@@](C(=O)OC)(c1cc3c(cc1OC)N(C)[C@H]1[C@@](O)(C(=O)OC)[C@H](OC(C)=O)[C@]4(CC)C=CCN5CC[C@]31[C@@H]54)C2 [VINORELBINE] for me?
Result: 6.83 nM

Task: Can you look up the measured IC50 of Cc1cnc(-c2cnc(NCCNc3ccc(C#N)cn3)nc2-c2ccc(Cl)cc2Cl)[nH]1 [LADUVIGLUSIB] for me?
Result: > 2560 nM

Task: Can you look up the measured IC50 of CN(c1ncccc1CNc1nc(Nc2ccc3c(c2)CC(=O)N3)ncc1C(F)(F)F)S(C)(=O)=O [PF-00562271] for me?
Result: > 2560 nM

Task: Can you look up the measured IC50 of COc1cc(F)c(F)c(Nc2ccc(I)cc2F)c1NS(=O)(=O)C1(CC(O)CO)CC1 (centres undefined) for me?
Result: > 5000 nM

###

Test system: IPC-298
Test: SANGER: Inhibition of human IPC-298 cell growth in a cell viability assay.
Format: functional, cell-based
Kindly supply the reported IC50 values for the records listed here.

Task: Can you look up the measured IC50 of "CN(c1ncccc1CNc1nc(Nc2ccc3c(c2)CC(=O)N3)ncc1C(F)(F)F)S(C)(=O)=O" for me?
Result: > 2.56 µM

Task: Can you look up the measured IC50 of "Cc1ccc(Nc2nccc(N(C)c3ccc4c(C)n(C)nc4c3)n2)cc1S(N)(=O)=O" for me?
Result: > 8 µM

Task: Can you look up the measured IC50 of "Cc1cc([C@@H](C)Nc2ccccc2C(=O)O)c2nc(N3CCOCC3)cc(=O)n2c1" for me?
Result: > 5.12 µM

###

System: KM12;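 also: KM12 cell growth inhibition, read out with a cell viability assay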
Assay: cells
Format: functional, cell-based, Homo sapiens
Details: Homo sapiens, KM12
Description: SANGER: Inhibition of human KM12 cell growth in a cell viability assay.
pIC50: −log10 of the molar value.
readout-kind: pIC50

Task: Can you look up the measured pIC50 of "Nc1ccn([C@@H]2O[C@H](CO)[C@@H](O)[C@@H]2O)c(=O)n1" for me?
Result: < 5.70

Task: Can you look up the measured pIC50 of "CN(C)C/C=C/C(=O)Nc1cc2c(Nc3ccc(F)c(Cl)c3)ncnc2cc1O[C@H]1CCOC1" for me?
Result: < 6.30

Task: Can you look up the measured pIC50 of "CCOc1nc(NC(=O)Cc2cc(OC)ccc2OC)cc(N)c1C#N" for me?
Result: < 5.00

Task: Can you look up the measured pIC50 of "O=C1N=C(NCc2cccs2)S/C1=C\c1ccc2ncccc2c1" for me?
Result: < 5.30

Task: Can you look up the measured pIC50 of O=C(/C=C/c1ccccc1)NC(NC(=S)Nc1cccc2cccnc12)C(Cl)(Cl)Cl (stereo unspecified) for me?
Result: < 4.80

Task: Can you look up the measured pIC50 of "Cc1cnc(-c2cnc(NCCNc3ccc(C#N)cn3)nc2-c2ccc(Cl)cc2Cl)[nH]1" for me?
Result: < 5.59

###

Kindly supply the reported IC50 values for the records listed here.
Test system: EM-2
Experiment: cells
Type: functional, cell-based
Conditions: Homo sapiens
Description: SANGER: Inhibition of human EM-2 cell growth in a cell viability assay.

Task: Item: "O=c1cc(-c2cccc3c2Sc2ccccc2S3)oc(N2CCOCC2)c1" Test system: EM-2 Read-out: IC50 Value: ?
Result: > 10 µM

Task: Item: O=C(/C=C/c1ccccc1)NC(NC(=S)Nc1cccc2cccnc12)C(Cl)(Cl)Cl (centres undefined) Test system: EM-2 Read-out: IC50 Value: ?
Result: > 16 µM

Task: Item: "CS(=O)(=O)CCNCc1ccc(-c2ccc3ncnc(Nc4ccc(OCc5cccc(F)c5)c(Cl)c4)c3c2)o1" Test system: EM-2 Read-out: IC50 Value: ?
Result: > 2 µM

Task: Item: "CN(C)C/C=C/C(=O)Nc1cc2c(Nc3ccc(F)c(Cl)c3)ncnc2cc1O[C@H]1CCOC1" Test system: EM-2 Read-out: IC50 Value: ?
Result: > 0.5 µM
